meta.source: paper PMC7587356

Biological target: SARS-CoV-2 3CLpro (Severe acute respiratory syndrome coronavirus 2)
Assay: biochemical
Assay type: biochemical
Parameters: unit not given here
Details: sheet LOPAC_screen_w_protease; primary screen of LOPAC1280 at 5 µM with protease; replicate 1
Field: Replicate_1. Provide a value for each of the molecules that follow.
Note: the reply should be a number with no unit written.

Memo: "Nc1nccc2c1ncn2[C@@H]1O[C@H](CO)[C@@H](O)[C@H]1O" , reported Replicate_1: 4.639

Memo: N[C@@H]1CONC1=O (racemic) , reported Replicate_1: 2.383

Memo: Cl.c1ccc(CN(CC2=NCCN2)c2ccccc2)cc1 [Antozoline hydrochloride] , reported Replicate_1: 3.9302

Memo: CC(O)C(C)OC(=O)[C@@H]1C[C@@H]2c3cccc4c3c(cn4C(C)C)C[C@H]2N(C)C1.O=C(O)/C=C\C(=O)O (stereo partly shown) [LY-53,857 maleate] , reported Replicate_1: 1.754

====

Field: mean. Provide a value for each of the molecules that follow.
Molecular target: SARS-CoV-2 3CLpro (Severe acute respiratory syndrome coronavirus 2, UniProt P0DTD1)
Test: biochemical
Format: biochemical
Design: unit not given here
Settings: sheet LOPAC_screen_w_protease; LOPAC1280 primary screen at 5 µM, with protease; mean of two replicates
Note: the reply should be a number with no unit written.

Memo: COc1ccccc1N1CCN(CCCNc2c(C)c(=O)n(C)c(=O)n2C)CC1 [Urapidil, 5-Methyl-] , reported mean: -1.384

Memo: CC1=C(CC(=O)O)c2cc(F)ccc2/C1=C\c1ccc(S(C)(=O)=O)cc1 [Sulindac sulfone] , reported mean: -1.258

Memo: Nc1ccc(CCN2CCN(c3cccc(C(F)(F)F)c3)CC2)cc1 [PAPP] , reported mean: -1.528

Memo: CC#CCOC(=O)c1c(C)nc2sc3c(c2c1N)CCC(O)C3 (centres unmarked) [SB 205384] , reported mean: -1.612

Memo: S=C([S-])OC1CC2CC1C1CCCC21.[K+] [D-609 potassium] , reported mean: -1.918

====

Field: Replicate_1. Provide a value for each of the molecules that follow.
Target: SARS-CoV-2 3CLpro (Severe acute respiratory syndrome coronavirus 2)
Assay: biochemical
Assay type: biochemical
Set-up: unit not given here
Details: sheet LOPAC_screen_w_protease; primary screen of LOPAC1280 at 5 µM with protease; replicate 1
Note: the reply should be a number with no unit written.

Memo: N[C@H](C(=O)O)c1cc(O)cc(O)c1 [(S)-3,5-Dihydroxyphenylglycine] , reported Replicate_1: 2.928

Memo: C[N+](C)(C)CC#CCOC(=O)Nc1cccc(Cl)c1.[Cl-] [McN-A-343] , reported Replicate_1: 2.713

Memo: COc1ccccc1CNCCCCCCNCCCCCCCCNCCCCCCNCc1ccccc1OC.Cl.Cl.Cl.Cl [Methoctramine tetrahydrochloride] , reported Replicate_1: 5.6561

Memo: CC(C)c1ccc2c(c1)c(SC(C)(C)C)c(CC(C)(C)C(=O)O)n2Cc1ccc(Cl)cc1 [MK-886] , reported Replicate_1: 4.4392

Memo: O=C(OCCN1CCOCC1)C1(c2ccccc2)CCCCC1 [PRE-084] , reported Replicate_1: 2.6752

Memo: Br.CCCN1CC[C@@H]2c3cc(O)ccc3CC[C@@H]21 (racemic) [cis-(±)-8-OH-PBZI hydrobromide] , reported Replicate_1: 4.218

Memo: Ic1ccccc1CNC1C2CCN(CC2)C1C(c1ccccc1)c1ccccc1.O=C(O)C(=O)O [L-703,606 oxalate] , reported Replicate_1: 4.135

Memo: C[C@@H]1O[C@@H](O[C@H]2C[C@@H](O)[C@]3(CO)[C@H]4[C@H](O)C[C@]5(C)[C@@H]([C@@H]6COC(=O)C6)CC[C@]5(O)[C@@H]4CC[C@]3(O)C2)[C@H](O)[C@H](O)[C@H]1O [Dihydroouabain] , reported Replicate_1: 5.984

Memo: N#C/C(=C\c1ccc(O)c(O)c1)C(=O)NCCCc1ccccc1 [Tyrphostin AG 555] , reported Replicate_1: 4.708

Memo: C[C@](N)(CCP(=O)(O)O)C(=O)O.Cl [(S)-MAP4 hydrochloride] , reported Replicate_1: 4.444

Memo: C[N+]1(C)C2CCC1CC(OC(=O)c1c[nH]c3ccccc13)C2.[I-] (stereo not shown) , reported Replicate_1: 3.9921

Memo: Cc1nc2sccn2c(=O)c1CCN1CCC(=C(c2ccccc2)c2ccc(F)cc2)CC1 [Diacylglycerol kinase inhibitor I] , reported Replicate_1: 4.4123

Memo: "COC(=O)[C@@H](N)Cc1ccc(O)c(O)c1.Cl" , reported Replicate_1: 4.528

Memo: O=c1[nH]c(=O)n([C@H]2C[C@H](O)[C@@H](CO)O2)cc1/C=C/Br [(E)-5-(2-Bromovinyl)-2'-deoxyuridine] , reported Replicate_1: 2.158

Memo: O=C(O)CN(CCN(CC(=O)O)CC(=O)O)CCN(CC(=O)O)CC(=O)O [Diethylenetriaminepentaacetic acid] , reported Replicate_1: 5.3521

Memo: COC(=O)c1cc2c(cn1)[nH]c1ccccc12 [Methyl beta-carboline-3-carboxylate] , reported Replicate_1: 4.868

====

Field: log10 EC50. Provide a value for each of the compounds that follow.
Biological target: SARS-CoV-2 3CLpro (Severe acute respiratory syndrome coronavirus 2, UniProt P0DTD1)
Assay: biochemical
Type: biochemical
Conditions: without Triton X-100; mean ± SD of triplicate; 4 h, 30 °C; read-out: B) EC50 without Triton X-100
On a log10 scale: recorded EC50, unit nM.

Memo: CN1CCc2c(cc(O)c(O)c2Cl)C(c2cccc(Cl)c2)C1 (centres unmarked) , reported log10 EC50: 3.78

Memo: N#CC(C#N)=C(N)/C(C#N)=C/c1cc(O)c(O)c(O)c1 [Tyrphostin 51, reference compound] , reported log10 EC50: 3.96

Memo: CN1CC[C@@]2(C)c3cc(O)ccc3N(C)[C@@H]12 [(−)-Eseroline] , reported log10 EC50: 2.87

Memo: Oc1cc(O)c2c(c1)O[C@H](c1ccc(O)c(O)c1)[C@@H](O)C2 [(+)-Catechin] , reported log10 EC50: 4.05

Memo: "Cc1ccc(S(=O)(=O)N[C@@H](Cc2ccccc2)C(=O)CCl)cc1" , reported log10 EC50: 2.99

Memo: "CN=c1nc(-c2ccccc2)n(-c2ccccc2)s1" , reported log10 EC50: 1.61

Memo: Br.CCCN1CCc2cc(O)cc3c2[C@H]1Cc1ccc(O)c(O)c1-3 [R(−)-2-OH-NPA] , reported log10 EC50: 2.85

Memo: O=c1oc(Cl)c(Cl)c2ccccc12 [3,4-Dichloroisocoumarin, reference compound] , reported log10 EC50: 3.73

Memo: Oc1cc2c(cc1O)[C@H]1c3ccccc3CN[C@@H]1CC2 (racemic) [Dihydrexidine] , reported log10 EC50: 2.79

Memo: CC(Cc1ccc(O)c(O)c1)C(C)Cc1ccc(O)c(O)c1 (centres unmarked) [Nordihydroguaiaretic acid] , reported log10 EC50: 2.33

Memo: "O=C(N[C@@H](Cc1ccccc1)C(=O)CCl)OCc1ccccc1" , reported log10 EC50: 2.13

Memo: "Oc1ccc2c3c1O[C@H]1c4[nH]c5c(c4C[C@@]4(O)[C@@H](C2)N(CC2CC2)CC[C@]314)C[C@@]1(O)[C@H]2Cc3ccc(O)c4c3[C@@]1(CCN2CC1CC1)[C@H]5O4" , reported log10 EC50: 3.41

Memo: N=C1Sc2ccccc2C2=NCCCN12 [PD 404,182, reference compound] , reported log10 EC50: 1.78

Memo: "O=C(O)Cc1ccc(O)c(O)c1" , reported log10 EC50: 3.39

Memo: "CC(C)C[C@H](N)CS" , reported log10 EC50: 3.29

====

Target: SARS-CoV-2 3CLpro (Severe acute respiratory syndrome coronavirus 2)
Assay: biochemical
Type: biochemical
Settings: sheet LOPAC_screen_w_protease; primary screen at 5 µM; replicate 2
// assign Satisfied if Replicate_2 (LOPAC screen with protease) falls strictly below 20, else Not satisfied (ties count as Not satisfied)

Does the reported Replicate_2 (LOPAC screen with protease) of the following molecule sit strictly below 20? "Cc1cc(N)c2ccccc2[n+]1CCCCCCCCCCCCCC[n+]1c(C)cc(N)c2ccccc21.[I-].[I-]" Satisfied

Does the reported Replicate_2 (LOPAC screen with protease) of the following molecule sit strictly below 20? C[C@@](Cc1ccc(O)c(O)c1)(NN)C(=O)O [S-(-)-Carbidopa] Satisfied

Does the reported Replicate_2 (LOPAC screen with protease) of the following molecule sit strictly below 20? Oc1ccccc1O [Pyrocatechol, reference compound] Not satisfied

Does the reported Replicate_2 (LOPAC screen with protease) of the following molecule sit strictly below 20? Br.CN1CCc2cc(O)c(O)cc2C(c2ccccc2)C1 (stereo not shown) [SKF 75670 hydrobromide] Not satisfied

Does the reported Replicate_2 (LOPAC screen with protease) of the following molecule sit strictly below 20? N.S=C(S)N1CCCC1 [Ammonium pyrrolidinedithiocarbamate] Not satisfied

Does the reported Replicate_2 (LOPAC screen with protease) of the following molecule sit strictly below 20? Br.CN1CCc2c(cc(O)c(O)c2Cl)C(c2cccc(Cl)c2)C1 (stereo not shown) [SKF 83565 hydrobromide] Not satisfied

Does the reported Replicate_2 (LOPAC screen with protease) of the following molecule sit strictly below 20? C=CCN1CC[C@]23c4c5ccc(O)c4O[C@@H]2/C(=N/N=C2\CC[C@@]4(O)C6Cc7ccc(O)c8c7[C@@]4(CCN6CC=C)[C@@H]2O8)CC[C@@]3(O)C1C5.Cl.Cl [Naloxonazine dihydrochloride] Satisfied
